experimental-details: in vitro
conditions-used: rat, in vivo
outcome-measure: half-life at 1 h

IN: Name the recorded half-life at 1 h for CC(C)(OC(=O)C12CC3CC(CC(C3)C1)C2)c1ccncc1 .
OUT: > 1 h

###

experimental-details: in vitro
conditions-used: rat, in vivo
outcome-measure: half-life at 1 min

IN: Name the recorded half-life at 1 min for O=C(OCc1ccncc1)C12CC3CC(CC(C3)C1)C2 .
OUT: < 1 min

###

Let's go through some recorded IC50 values for Steroid 17-alpha-hydroxylase/17,20 lyase (Homo sapiens, UniProt P05093) together.
Answers are plain numbers, in µM.

[[record]]
compound_smiles = "C[C@H](NC(=O)C12CC3CC(CC(C3)C1)C2)c1ccncc1"
system = "Steroid 17-alpha-hydroxylase/17,20 lyase (Homo sapiens, UniProt P05093)"
outcome_measure = "IC50"
result_unit = "µM"
reported_measurement = 0.82


Read the next record carefully.
IN: Form field: IC50 recorded for C[C@@H](NC(=O)C12CC3CC(CC(C3)C1)C2)c1ccncc1 with Steroid 17-alpha-hydroxylase/17,20 lyase (Homo sapiens, UniProt P05093) (enter value)
OUT: 1.9
